test system: A498 renal; test: NCI tumour cell line growth inhibition, 384-well format
Experimental readout: GI50

| Input smiles | Study system | Value |
| --- | --- | --- |
| COc1c2occc2cc2ccc(=O)oc12 | A498 renal | > 100 µM |
| COCC(=O)NC/C=C/c1ccc2ncnc(Nc3ccc(Oc4ccc(C)nc4)c(C)c3)c2c1 | A498 renal | 14.3 µM |
| c1ccc2c(NCCCN3CCN(CCCNc4c5ccccc5nc5ccccc45)CC3)c3ccccc3nc2c1 | A498 renal | 0.504 µM |

Pending molecule:
Using the record for CN1CCN(c2ccc(-c3cccc(CN4CCOCC4)c3)cc2NC(=O)c2c[nH]c(=O)cc2C(F)(F)F)CC1 , report its GI50.
17.3 µM
